Measured values drawn from patent US20200339680A1 for this set.

target: T1, human TMEM106B (human, UniProt Q9NUM4 2-274); experiment: FACS HeLa
T1 construct: full-length, transiently expressed on HEK293 cells, or natively expressed on HeLa, U251 and A549 cells (the cell is named under assay); also the source of the Pepscan peptides; also called huTMEM106B; huTMEM
// reported MFI for each item listed
# unit: MFI | format: bare number

INSERT INTO measurements (binder, reading_unit, result_value) VALUES
  ('TM-9 (antibody, V domains shown) VH: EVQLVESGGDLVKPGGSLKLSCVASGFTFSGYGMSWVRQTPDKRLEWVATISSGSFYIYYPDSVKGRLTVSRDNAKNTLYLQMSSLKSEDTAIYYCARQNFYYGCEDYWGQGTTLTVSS VL: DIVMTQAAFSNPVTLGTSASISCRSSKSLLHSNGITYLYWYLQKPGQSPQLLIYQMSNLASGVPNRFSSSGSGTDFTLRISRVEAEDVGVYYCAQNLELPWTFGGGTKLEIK', 'MFI', 2540);

Prompt: Any idea what MFI was measured for TM-8 (antibody, V domains shown, mouse IgG (hybridoma)) VH: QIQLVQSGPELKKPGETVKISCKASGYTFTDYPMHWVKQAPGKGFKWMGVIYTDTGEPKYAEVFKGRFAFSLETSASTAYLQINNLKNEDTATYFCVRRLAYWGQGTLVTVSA VL: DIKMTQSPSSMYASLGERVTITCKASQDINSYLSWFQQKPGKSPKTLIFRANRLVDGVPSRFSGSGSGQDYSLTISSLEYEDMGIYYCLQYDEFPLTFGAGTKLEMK ?
Response: 568

Prompt: For TM-16 (antibody, V domains shown) VH: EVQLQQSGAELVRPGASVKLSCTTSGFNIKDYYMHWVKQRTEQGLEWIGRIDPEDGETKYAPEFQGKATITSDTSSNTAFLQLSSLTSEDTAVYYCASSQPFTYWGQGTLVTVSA VL: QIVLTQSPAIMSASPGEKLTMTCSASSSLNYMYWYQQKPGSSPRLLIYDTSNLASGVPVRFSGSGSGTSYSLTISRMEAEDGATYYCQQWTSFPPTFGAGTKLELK then?
Response: 548

Prompt: For TM-33 (antibody, V domains shown, mouse IgG (hybridoma)) VH: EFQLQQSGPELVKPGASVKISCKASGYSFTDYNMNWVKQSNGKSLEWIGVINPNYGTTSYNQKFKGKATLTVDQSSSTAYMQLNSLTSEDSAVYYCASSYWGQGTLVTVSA VL: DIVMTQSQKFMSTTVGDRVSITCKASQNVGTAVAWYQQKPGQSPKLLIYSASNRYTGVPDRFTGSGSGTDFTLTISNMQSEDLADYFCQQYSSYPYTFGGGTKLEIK then?
Response: 148

Prompt: For TM-42 (antibody, V domains shown) VH: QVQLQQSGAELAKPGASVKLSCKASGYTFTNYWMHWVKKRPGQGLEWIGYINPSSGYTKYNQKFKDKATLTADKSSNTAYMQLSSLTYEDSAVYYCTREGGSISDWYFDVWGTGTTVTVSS VL: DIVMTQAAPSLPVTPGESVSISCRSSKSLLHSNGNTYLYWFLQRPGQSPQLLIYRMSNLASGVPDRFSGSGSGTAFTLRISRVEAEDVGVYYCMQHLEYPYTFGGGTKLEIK then?
Response: 215
